Measured abundance fitness accompanies every entry in the list below.
B1: Androgen receptor, residues 557 to 632; numbered along this chain, P10275 (parent)
chain: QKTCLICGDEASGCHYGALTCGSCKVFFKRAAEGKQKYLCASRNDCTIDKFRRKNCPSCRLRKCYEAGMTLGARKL

Variants of: B1
method description: abundance fitness (aPCA) (normalised: wild type 0, dead -1); higher = more abundant; growth selection in yeast, the domain comes from the species named
study conditions: Homo sapiens
Would you mind answering with just the numeric figure?

Example variants with recorded abundance fitness:
{"sequence variant": "L71A", "abundance fitness": -0.142}
{"sequence variant": "K50D", "abundance fitness": -0.403}
{"sequence variant": "L5R", "abundance fitness": -0.105}
{"sequence variant": "K35G", "abundance fitness": -0.031}
{"sequence variant": "Q1C", "abundance fitness": -0.019}

What the record says about T3A : abundance fitness is -0.081

What the record says about G22K : abundance fitness is -0.114

What the record says about C14F : abundance fitness is -0.1

Measured values drawn from the Human Domainome abundance scans (Beltran et al. 2025) for this set.
